System: RXRa homodimer (NR concentration 180 nM)
Test: PBM binding z-score (relative to random genomic background probes); higher = stronger binding; sequences stand for … in GC…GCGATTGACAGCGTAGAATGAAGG
Quantity: PBM binding z-score
// no unit string in output, number only

Input line: Indicate the recorded PBM binding z-score value for this sequence: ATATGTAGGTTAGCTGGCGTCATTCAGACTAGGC
Output line: 0.485

Input line: Please list PBM binding z-score recorded for the sequence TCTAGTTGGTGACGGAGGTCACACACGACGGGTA
Output line: 4.29

Input line: Retrieve PBM binding z-score measured for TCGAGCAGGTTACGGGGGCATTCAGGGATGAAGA and print it.
Output line: 2.92

Input line: Identify measured PBM binding z-score associated with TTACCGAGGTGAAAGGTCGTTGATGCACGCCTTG
Output line: 6.76

Input line: State its PBM binding z-score for this sequence: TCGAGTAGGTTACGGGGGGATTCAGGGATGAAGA
Output line: 2.04

Input line: Provide one value: measured PBM binding z-score of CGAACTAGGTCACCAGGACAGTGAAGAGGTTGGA
Output line: 3.39

Input line: Answer with the recorded PBM binding z-score for the sequence listed here: CAAACTAGGTCACGAAAGGTCAAAGTGGAATGAC
Output line: 8.35

Input line: Give a short answer stating reported PBM binding z-score for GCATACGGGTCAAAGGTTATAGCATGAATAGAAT .
Output line: 9.53

Input line: Recall and state the measured PBM binding z-score for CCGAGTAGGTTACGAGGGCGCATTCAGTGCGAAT .
Output line: 0.655

Input line: Provide one value: measured PBM binding z-score of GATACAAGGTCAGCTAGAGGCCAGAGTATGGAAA
Output line: 4.28

Input line: Give me measured PBM binding z-score, please, for this sequence: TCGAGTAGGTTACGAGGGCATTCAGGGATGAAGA
Output line: 1.58

Input line: Supply reported PBM binding z-score belonging to this sequence: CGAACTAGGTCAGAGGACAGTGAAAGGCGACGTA
Output line: 1.54

Input line: Name the recorded PBM binding z-score of the item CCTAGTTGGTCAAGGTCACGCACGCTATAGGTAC in your answer.
Output line: 5.65

Input line: State, in one line, measured PBM binding z-score of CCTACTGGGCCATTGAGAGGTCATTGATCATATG
Output line: 3.13

Input line: Return PBM binding z-score (reported value) for this sequence: CTATGTAGGTTAAGGGGGTCACTCAGTTTGAAAG
Output line: 5.58

Input line: Return the recorded PBM binding z-score value; entry: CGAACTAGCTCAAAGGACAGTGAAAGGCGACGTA
Output line: -0.119

Input line: Report measured PBM binding z-score; entry is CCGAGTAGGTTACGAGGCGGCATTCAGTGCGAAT
Output line: 0.329

Input line: Please give the documented PBM binding z-score of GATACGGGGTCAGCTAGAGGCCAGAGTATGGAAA
Output line: 7.4

Input line: Supply measured PBM binding z-score of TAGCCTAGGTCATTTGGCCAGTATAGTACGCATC in your reply.
Output line: 2.73

Input line: Output PBM binding z-score of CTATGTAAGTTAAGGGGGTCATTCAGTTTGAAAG
Output line: 5.16

Input line: Name the recorded PBM binding z-score of the sequence listed here: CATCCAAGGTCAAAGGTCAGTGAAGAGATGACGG
Output line: 10.2

Input line: Please report the measured PBM binding z-score for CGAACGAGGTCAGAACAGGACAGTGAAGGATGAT
Output line: 4.37

Input line: Indicate its recorded PBM binding z-score; the sequence in question is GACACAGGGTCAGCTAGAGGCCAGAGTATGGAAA
Output line: 4.1

Input line: Given the sequence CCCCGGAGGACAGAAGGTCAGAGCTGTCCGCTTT , write its reported PBM binding z-score.
Output line: 1.78

Input line: Determine from records and report PBM binding z-score for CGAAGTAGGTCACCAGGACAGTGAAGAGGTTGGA
Output line: 3.57

Input line: Name the recorded PBM binding z-score of the item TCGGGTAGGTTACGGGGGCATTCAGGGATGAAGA in your answer.
Output line: 3.43
